# Tested on: acetylcholine
# test: Inhibition of acetylcholine-induced bronchoconstriction by aerosol, anesthetized guinea pigs
# Type: in vivo
# assay_conditions: 15.0 μg as cation, distilled water
measure_name: Mean % Inhibition (±S.E.) vs. Acetylcholine

{"compound": "CCC[N+](C)(C)C(C)CN1c2ccccc2Sc2ccccc21 (racemic)", "experimental_result": "84.0 (6.56) %"}
{"compound": "CC(CN1c2ccccc2Sc2ccccc21)[N+](C)(C)C (racemic) [CH3 / I]", "experimental_result": "98.66 (1.33) %"}
{"compound": "CCCC[N+](C)(C)C(C)CN1c2ccccc2Sc2ccccc21 (racemic)", "experimental_result": "52.0 (6.35) %"}
{"compound": "CC(CN1c2ccccc2Sc2ccccc21)[N+](C)(C)C (racemic) [CH3 / NO3]", "experimental_result": "100 (0) %"}
{"compound": "CC(CN1c2ccccc2Sc2ccccc21)[N+](C)(C)C (racemic) [CH3 / Br]", "experimental_result": "99.0 (1.0) %"}
{"compound": "CC[N+](C)(C)C(C)CN1c2ccccc2Sc2ccccc21 (racemic)", "experimental_result": "98.66 (1.33) %"}

* * *

# Tested on: acetylcholine
# test: Inhibition of acetylcholine-induced bronchoconstriction by aerosol, anesthetized guinea pigs
# Type: in vivo
# assay_conditions: 1.5 μg as cation, distilled water
Item-by-item account of Mean % Inhibition (±S.E.) vs. Acetylcholine
measure_name: Mean % Inhibition (±S.E.) vs. Acetylcholine

{"compound": "CC(CN1c2ccccc2Sc2ccccc21)[N+](C)(C)C (racemic) [CH3 / Br]", "tested_target": "acetylcholine", "experimental_result": "38.75 (9.26) %"}
{"compound": "CC(CN1c2ccccc2Sc2ccccc21)[N+](C)(C)C (racemic) [CH3 / I]", "tested_target": "acetylcholine", "experimental_result": "47.0 (7.59) %"}
{"compound": "CCCC[N+](C)(C)C(C)CN1c2ccccc2Sc2ccccc21 (racemic) [n-C4 H9 / I]", "tested_target": "acetylcholine", "experimental_result": "39.25 (2.53) %"}
{"compound": "CC(CN1c2ccccc2Sc2ccccc21)[N+](C)(C)C (racemic) [CH3 / NO3]", "tested_target": "acetylcholine", "experimental_result": "43.5 (10.33) %"}
{"compound": "CCC[N+](C)(C)C(C)CN1c2ccccc2Sc2ccccc21 (racemic) [n-C3 H7 / I]", "tested_target": "acetylcholine", "experimental_result": "43.75 (6.51) %"}
{"compound": "CC[N+](C)(C)C(C)CN1c2ccccc2Sc2ccccc21 (racemic) [C2 H 5 / I]", "tested_target": "acetylcholine", "experimental_result": "62.75 (10.63) %"}

Measured values drawn from patent US4097596A for this set.
